test-details: Photocytotoxicity against human PANC1 cells assessed as cell viability preincubated for 5 hrs followed by UVA-1 irradiation at 0.85 mW/cm'2 for 20 mins measured after 48 hrs by CCK8 assay
Assay type: functional, cell-based
test-context: PANC-1, light or radiation study
pEC50: −log10 of the molar value.
Reported pEC50 by item:
observation-type: pEC50

smiles_entry=Cc1cn([C@H]2C[C@H](n3cc(CNC(=O)CCCCCCCOc4ccc5c(c4)-c4nc6ccccc6nc4[C@H]4C(C)(C)CCC[C@]54C)nn3)[C@@H](CO)O2)c(=O)[nH]c1=O relational_operator== number=5.09
smiles_entry=Cc1cn([C@H]2C[C@H](n3cc(CNC(=O)CCCCCOc4ccc5c(c4)C(=O)C(=O)[C@@H]4C(C)(C)CCC[C@]54C)nn3)[C@@H](CO)O2)c(=O)[nH]c1=O relational_operator=< number=4.70
smiles_entry=Cc1cn([C@H]2C[C@H](n3cc(CNC(=O)CCCCCOc4ccc5c(c4)-c4nc6ccc(F)cc6nc4[C@@H]4C(C)(C)CCC[C@]54C)nn3)[C@@H](CO)O2)c(=O)[nH]c1=O relational_operator== number=4.87
smiles_entry=Cc1cn([C@H]2C[C@H](n3cc(CNC(=O)CCCCCOc4ccc5c(c4)-c4nc6ccccc6nc4[C@H]4C(C)(C)CCC[C@]54C)nn3)[C@@H](CO)O2)c(=O)[nH]c1=O relational_operator== number=4.95

---

Reported EC50 at 53 h by item:
test-details: Dark toxicity against human PANC1 cells assessed as cell viability after 53 hrs by CCK8 assay in absence of UVA-1 irradiation
Assay type: cell-based, PANC-1
observation-type: EC50 at 53 h

smiles_entry=Cc1cn([C@H]2C[C@H](n3cc(CNC(=O)CCCOc4ccc5c(c4)-c4nc6ccccc6nc4[C@@H]4C(C)(C)CCC[C@]54C)nn3)[C@@H](CO)O2)c(=O)[nH]c1=O result="20 µM"
smiles_entry=Cc1cn([C@H]2C[C@H](n3cc(CNC(=O)CCCCCOc4ccc5c(c4)-c4nc6ccc(F)cc6nc4[C@@H]4C(C)(C)CCC[C@]54C)nn3)[C@@H](CO)O2)c(=O)[nH]c1=O result="≥ 50 µM"
smiles_entry=Cc1cn([C@H]2C[C@H](n3cc(CCCC(=O)Nc4cc5ccc6cccc7ccc(c4)c5c67)nn3)[C@@H](CO)O2)c(=O)[nH]c1=O result="> 50 µM"

---

Reported EC50 at 53 h by item:
test-details: Dark toxicity against human Bel7402 cells assessed as cell viability after 53 hrs by CCK8 assay in absence of UVA-1 irradiation
Type: cell-based, Bel-7402
observation-type: EC50 at 53 h

smiles_entry=Cc1cn([C@H]2C[C@H](n3cc(CNC(=O)CCCCCOc4ccc5c(c4)-c4nc6cc(Cl)c(Cl)cc6nc4[C@@H]4C(C)(C)CCC[C@]54C)nn3)[C@@H](CO)O2)c(=O)[nH]c1=O result="> 20 µM"
smiles_entry=CC1(C)CCC[C@]2(C)c3ccc(OCCCCCC(=O)NCc4cn([C@@H]5O[C@H](CO)[C@H](O)[C@H](O)[C@H]5O)nn4)cc3-c3nc4ccccc4nc3[C@H]12 result="> 50 µM"
smiles_entry=Cc1cn([C@H]2C[C@H](n3cc(CNC(=O)CCCCCCCOc4ccc5c(c4)-c4nc6ccccc6nc4[C@@H]4C(C)(C)CCC[C@]54C)nn3)[C@@H](CO)O2)c(=O)[nH]c1=O result="10 µM"

---

Reported EC50 at 53 h by item:
test-details: Dark toxicity against human PANC1 cells assessed as cell viability after 53 hrs by CCK8 assay in absence of UVA-1 irradiation
Assay type: cell-based, PANC-1
observation-type: EC50 at 53 h

smiles_entry=Cc1cn([C@H]2C[C@H](n3cc(CNC(=O)CCCCCOc4ccc5c(c4)-c4nc6cc(Cl)c(Cl)cc6nc4[C@@H]4C(C)(C)CCC[C@]54C)nn3)[C@@H](CO)O2)c(=O)[nH]c1=O result="≥ 50 µM"
smiles_entry=Cc1cn([C@H]2C[C@H](n3cc(CNC(=O)COc4ccc5c(c4)-c4nc6ccccc6nc4[C@@H]4C(C)(C)CCC[C@]54C)nn3)[C@@H](CO)O2)c(=O)[nH]c1=O result="20 µM"
smiles_entry=Cc1cn([C@H]2C[C@H](n3cc(CNC(=O)CCCCCOc4ccc5c(c4)-c4nc6cc(F)ccc6nc4[C@@H]4C(C)(C)CCC[C@]54C)nn3)[C@@H](CO)O2)c(=O)[nH]c1=O result="20 µM"
smiles_entry=Cc1cn([C@H]2C[C@H](n3cc(CNC(=O)CCCCCOc4ccc5c(c4)C(=O)C(=O)[C@@H]4C(C)(C)CCC[C@]54C)nn3)[C@@H](CO)O2)c(=O)[nH]c1=O result="> 50 µM"
smiles_entry=Cc1cn([C@H]2C[C@H](n3cc(CNC(=O)CCCCCCCOc4ccc5c(c4)-c4nc6ccccc6nc4[C@@H]4C(C)(C)CCC[C@]54C)nn3)[C@@H](CO)O2)c(=O)[nH]c1=O result="≥ 50 µM"
smiles_entry=Cc1cn([C@H]2C[C@H](n3cc(CNC(=O)CCCCCOc4ccc5c(c4)-c4nc6ccccc6nc4[C@@H]4C(C)(C)CCC[C@]54C)nn3)[C@@H](CO)O2)c(=O)[nH]c1=O result="≥ 50 µM"
smiles_entry=Cc1cn([C@H]2C[C@H](n3cc(CNC(=O)CCCCCCCOc4ccc5c(c4)-c4nc6ccccc6nc4[C@H]4C(C)(C)CCC[C@]54C)nn3)[C@@H](CO)O2)c(=O)[nH]c1=O result="> 50 µM"
smiles_entry=Cc1cn([C@H]2C[C@H](n3cc(CNC(=O)CCCCCOc4ccc5c(c4)-c4nc6ccccc6nc4[C@H]4C(C)(C)CCC[C@]54C)nn3)[C@@H](CO)O2)c(=O)[nH]c1=O result="> 50 µM"
smiles_entry=CC1(C)CCC[C@]2(C)c3ccc(OCCCCCC(=O)NCc4cn([C@@H]5O[C@H](CO)[C@H](O)[C@H](O)[C@H]5O)nn4)cc3-c3nc4ccccc4nc3[C@H]12 result="> 50 µM"
smiles_entry=Cc1cn([C@H]2C[C@H](n3cc(CNC(=O)CCCCCOc4ccc5c(c4)-c4nc6cc(Br)c(Br)cc6nc4[C@@H]4C(C)(C)CCC[C@]54C)nn3)[C@@H](CO)O2)c(=O)[nH]c1=O result="≥ 50 µM"

---

test-details: Dark toxicity against human Bel7402 cells assessed as cell viability after 53 hrs by CCK8 assay in absence of UVA-1 irradiation
Type: cell-based, Bel-7402
observation-type: EC50 at 53 h (µM)

smiles_entry=Cc1cn([C@H]2C[C@H](n3cc(CNC(=O)COc4ccc5c(c4)-c4nc6ccccc6nc4[C@@H]4C(C)(C)CCC[C@]54C)nn3)[C@@H](CO)O2)c(=O)[nH]c1=O observation_type="EC50 at 53 h" relational_operator=> number=20
smiles_entry=Cc1cn([C@H]2C[C@H](n3cc(CNC(=O)CCCCCOc4ccc5c(c4)-c4nc6cc(F)ccc6nc4[C@@H]4C(C)(C)CCC[C@]54C)nn3)[C@@H](CO)O2)c(=O)[nH]c1=O observation_type="EC50 at 53 h" relational_operator== number=10
smiles_entry=Cc1cn([C@H]2C[C@H](n3cc(CNC(=O)CCCCCOc4ccc5c(c4)C(=O)C(=O)[C@@H]4C(C)(C)CCC[C@]54C)nn3)[C@@H](CO)O2)c(=O)[nH]c1=O observation_type="EC50 at 53 h" relational_operator=> number=50
smiles_entry=Cc1cn([C@H]2C[C@H](n3cc(CNC(=O)CCCCCOc4ccc5c(c4)-c4nc6ccccc6nc4[C@@H]4C(C)(C)CCC[C@]54C)nn3)[C@@H](CO)O2)c(=O)[nH]c1=O observation_type="EC50 at 53 h" relational_operator== number=10
smiles_entry=Cc1cn([C@H]2C[C@H](n3cc(CNC(=O)CCCOc4ccc5c(c4)-c4nc6ccccc6nc4[C@@H]4C(C)(C)CCC[C@]54C)nn3)[C@@H](CO)O2)c(=O)[nH]c1=O observation_type="EC50 at 53 h" relational_operator=> number=20

---

test-details: Photocytotoxicity against human PANC1 cells assessed as cell viability preincubated for 5 hrs followed by UVA-1 irradiation at 0.85 mW/cm'2 for 20 mins measured after 48 hrs by CCK8 assay
Format: functional, cell-based
test-context: PANC-1, light or radiation study
Reported EC50 by item:
observation-type: EC50

smiles_entry=Cc1cn([C@H]2C[C@H](n3cc(CNC(=O)CCCCCOc4ccc5c(c4)-c4nc6cc(F)ccc6nc4[C@@H]4C(C)(C)CCC[C@]54C)nn3)[C@@H](CO)O2)c(=O)[nH]c1=O observation_type=EC50 result="7 µM"
smiles_entry=Cc1cn([C@H]2C[C@H](n3cc(CCCC(=O)Nc4cc5ccc6cccc7ccc(c4)c5c67)nn3)[C@@H](CO)O2)c(=O)[nH]c1=O observation_type=EC50 result="> 20 µM"
smiles_entry=Cc1cn([C@H]2C[C@H](n3cc(CNC(=O)CCCCCOc4ccc5c(c4)-c4nc6cc(Cl)c(Cl)cc6nc4[C@@H]4C(C)(C)CCC[C@]54C)nn3)[C@@H](CO)O2)c(=O)[nH]c1=O observation_type=EC50 result="5.7 µM"
smiles_entry=Cc1cn([C@H]2C[C@H](n3cc(CNC(=O)COc4ccc5c(c4)-c4nc6ccccc6nc4[C@@H]4C(C)(C)CCC[C@]54C)nn3)[C@@H](CO)O2)c(=O)[nH]c1=O observation_type=EC50 result="> 20 µM"
smiles_entry=CC1(C)CCC[C@]2(C)c3ccc(OCCCCCC(=O)NCc4cn([C@@H]5O[C@H](CO)[C@H](O)[C@H](O)[C@H]5O)nn4)cc3-c3nc4ccccc4nc3[C@H]12 observation_type=EC50 result="> 20 µM"
smiles_entry=Cc1cn([C@H]2C[C@H](n3cc(CNC(=O)CCCOc4ccc5c(c4)-c4nc6ccccc6nc4[C@@H]4C(C)(C)CCC[C@]54C)nn3)[C@@H](CO)O2)c(=O)[nH]c1=O observation_type=EC50 result="> 10 µM"

Data origin: ChEMBL document CHEMBL3745649
